test: modulators of glucocorticoid suppression of NF-kB, cell-based, luciferase, IL-1B stimulus, dexamethasone (AID 624486); conditions: NF-kB luciferase reporter, IL-1B + dexamethasone, luminescence; measured here: IL-1B alone, no Dex
API: label(entry) gives true (1) if the entry's z-score is strictly smaller than -0.03; on equality or larger values it gives false (0).

I'd appreciate it if you could check whether Cc1cccc(C2NNCC2c2ccc3ncccc3n2)n1 (stereo not given) has z-score smaller than -0.03.
true (1)

I'd appreciate it if you could check whether Nc1c(C(=O)c2cccc(-c3ccncc3)c2)cnn1-c1ccc(F)cc1F has z-score smaller than -0.03.
false (0)

I'd appreciate it if you could check whether COC(=O)Nc1nc2ccc(Oc3ccc(NC(=O)Nc4cc(C(F)(F)F)ccc4F)cc3)cc2s1 has z-score smaller than -0.03.
true (1)

I'd appreciate it if you could check whether Cn1cc(C2=C(c3cn(CCSC(=N)N)c4ccccc34)C(=O)NC2=O)c2ccccc21 has z-score smaller than -0.03.
false (0)

I'd appreciate it if you could check whether CNc1ncc2cc(Oc3ccc(F)cc3F)c(=O)n(C)c2n1 has z-score smaller than -0.03.
false (0)

I'd appreciate it if you could check whether Cc1ccc(NC(=O)c2ccnc(N3CCCC3)c2)cc1-c1ccc(C(=O)NCC2CC2)cc1 has z-score smaller than -0.03.
false (0)

I'd appreciate it if you could check whether Nc1nc(-c2ccc3c(c2)/C(=C\c2cc(Br)c(O)c(Br)c2)C(=O)N3)cs1 has z-score smaller than -0.03.
true (1)

I'd appreciate it if you could check whether CC(=O)NC(Cc1ccc(OP(=O)(O)O)cc1)C(=O)NC1CCC(=O)N2CCCC(C(=O)NCc3ccc(Cl)cc3)N2C1=O (stereo not given) has z-score smaller than -0.03.
false (0)

I'd appreciate it if you could check whether CN(c1ccc(NC(=O)Nc2c(Cl)cccc2Cl)cc1)c1ccnc(Nc2cccc(CS(C)(=O)=O)c2)n1 has z-score smaller than -0.03.
false (0)

I'd appreciate it if you could check whether COc1cc(Nc2ncc3c(C)nc(-c4cccc(Oc5ccccc5)c4)n3n2)cc(OC)c1OC has z-score smaller than -0.03.
true (1)

I'd appreciate it if you could check whether COc1ccccc1C1=C(Nc2ccccc2)C(=O)NC1=O has z-score smaller than -0.03.
false (0)

I'd appreciate it if you could check whether O=C(Nc1n[nH]c2nc(-c3ccco3)ccc12)C1CC1 has z-score smaller than -0.03.
true (1)

I'd appreciate it if you could check whether CS(=O)(=O)Nc1ccc(N=Cc2c(O)[nH]c3ccccc23)cc1 has z-score smaller than -0.03.
false (0)

I'd appreciate it if you could check whether NC(=O)c1ccc(Oc2nccc(-c3c(-c4ccc(F)cc4)ncn3C3CCNCC3)n2)cc1 has z-score smaller than -0.03.
false (0)

I'd appreciate it if you could check whether CN(C)CCOc1ccc(-c2cc(-c3ccc4c(c3)CC/C4=N/O)c(-c3ccncc3)o2)cc1 has z-score smaller than -0.03.
false (0)

I'd appreciate it if you could check whether Nc1c(C(=O)c2cccc(C#CCO)c2)cnn1-c1ccc(F)cc1 has z-score smaller than -0.03.
false (0)

I'd appreciate it if you could check whether COc1cc[nH]c1C=C1C(=O)Nc2ccccc21 has z-score smaller than -0.03.
false (0)

I'd appreciate it if you could check whether COc1cc2ncn(-c3cc(OCc4ccccc4C(F)(F)F)c(C(=O)N(C)C)s3)c2cc1OC has z-score smaller than -0.03.
true (1)

I'd appreciate it if you could check whether CC(C)c1[nH]nc2c1N=C(c1ccccc1Cl)c1cc([N+](=O)[O-])ccc1N2 has z-score smaller than -0.03.
false (0)

The reported numbers originate from PubChem BioAssay.
